target: BaF3-EGFR (L858R/T790M/C797S) (Homo sapiens, UniProt P00533, T790M/C797S/L858R, cells depend on it); assay: CCK-8 cell proliferation, BaF3-EGFR(L858R/T790M/C797S); assay type: cell-based; conditions: CCK-8, 72 hours; read-out: Average value of IC50 of inhibition against EGFR-mutant cells growth, BaF3-EGFR (L858R/T790M/C797S)
Sequence (P00533 whole entry T790M/C797S/L858R): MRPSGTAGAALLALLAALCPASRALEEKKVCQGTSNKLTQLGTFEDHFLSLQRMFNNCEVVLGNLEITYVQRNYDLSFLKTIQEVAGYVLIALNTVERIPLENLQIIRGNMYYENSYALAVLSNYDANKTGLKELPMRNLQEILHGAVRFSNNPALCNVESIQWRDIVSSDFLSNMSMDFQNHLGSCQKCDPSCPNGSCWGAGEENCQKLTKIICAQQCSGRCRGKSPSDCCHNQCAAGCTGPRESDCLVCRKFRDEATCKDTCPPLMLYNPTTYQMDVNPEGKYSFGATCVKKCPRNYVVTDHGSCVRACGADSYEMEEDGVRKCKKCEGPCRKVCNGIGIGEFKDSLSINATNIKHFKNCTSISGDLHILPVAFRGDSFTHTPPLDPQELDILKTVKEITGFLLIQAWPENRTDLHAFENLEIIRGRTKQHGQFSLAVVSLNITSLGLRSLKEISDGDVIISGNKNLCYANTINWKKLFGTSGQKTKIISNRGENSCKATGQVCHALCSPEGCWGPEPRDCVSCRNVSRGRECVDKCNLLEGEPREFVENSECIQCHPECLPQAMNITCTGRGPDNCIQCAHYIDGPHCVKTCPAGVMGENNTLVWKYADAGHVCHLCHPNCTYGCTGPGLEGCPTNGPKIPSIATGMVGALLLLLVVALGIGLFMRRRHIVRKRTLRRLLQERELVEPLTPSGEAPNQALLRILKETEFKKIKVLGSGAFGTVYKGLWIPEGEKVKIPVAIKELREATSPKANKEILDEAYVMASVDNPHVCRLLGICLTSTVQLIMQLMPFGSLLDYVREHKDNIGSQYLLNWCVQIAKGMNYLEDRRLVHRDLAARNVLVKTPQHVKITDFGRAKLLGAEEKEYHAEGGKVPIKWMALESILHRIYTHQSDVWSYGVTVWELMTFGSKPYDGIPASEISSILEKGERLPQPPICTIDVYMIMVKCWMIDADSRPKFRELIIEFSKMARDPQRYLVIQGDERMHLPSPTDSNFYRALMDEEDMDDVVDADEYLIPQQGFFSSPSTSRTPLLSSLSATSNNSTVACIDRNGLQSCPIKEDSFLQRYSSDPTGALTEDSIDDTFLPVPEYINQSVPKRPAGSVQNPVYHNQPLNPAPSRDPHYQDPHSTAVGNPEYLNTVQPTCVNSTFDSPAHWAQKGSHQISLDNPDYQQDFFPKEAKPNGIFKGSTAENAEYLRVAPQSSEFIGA
// classify(record): look up GI50 in ranges small value: < 300 nM; mid value: ≥ 300 nM and < 600 nM; large value: ≥ 600 nM

>>> assigned_class("CCS(=O)(=O)n1cc2c3ccc(cc31)OCCCn1cc(cn1)-c1cc(ccc1N1CCOCC1)Nc1ncc(Cl)c-2n1")
"small value"
>>> assigned_class("Cc1cc(N2CCOCC2)c2cc1Nc1ncc(Cl)c(n1)-c1c[nH]c3cc(ccc13)OCCCn1cc-2cn1")
"mid value"
>>> assigned_class("CCS(=O)(=O)n1cc2c3ccc(cc31)OCC(C)Cn1cc(cn1)-c1cc(c(OC)cc1N1CCOCC1)Nc1nccc-2n1 (stereo not drawn)")
"large value"
>>> assigned_class("CCS(=O)(=O)n1cc2c3ccc(cc31)OCCCn1cc(cn1)-c1cc(c(C)cc1N1CCOCC1)Nc1nccc-2n1 [HC950M]")
"small value"
>>> assigned_class("CCS(=O)(=O)n1cc2c3ccc(cc31)OCCCCn1cc(cn1)-c1cc(ccc1N1CCOCC1)Nc1ncc(Cl)c-2n1")
"small value"
>>> assigned_class("CCOc1cc(N2CCOCC2)c2cc1Nc1nccc(n1)-c1cn(S(=O)(=O)CC)c3cc(ccc13)OCCCn1cc-2cn1")
"mid value"
>>> assigned_class("CCS(=O)(=O)n1cc2c3ccc(cc31)OCCCn1cc(cn1)-c1cc(c(OC)cc1N1CCC(N3CCN(C)CC3)CC1)Nc1nccc-2n1")
"large value"
>>> assigned_class("CCc1cc(N2CCOCC2)c2cc1Nc1nccc(n1)-c1cn(S(=O)(=O)CC)c3cc(ccc13)OCCCn1ccc-2n1")
"mid value"
>>> assigned_class("COc1cc(N2CCC(N3CCN(C)CC3)CC2)ccc1Nc1ncc(Cl)c(Nc2ccccc2P(C)(C)=O)n1 [Brigatinib, reference compound]")
"large value"
>>> assigned_class("CCS(=O)(=O)n1cc2c3ccc(cc31)OCCCn1cc(cn1)-c1cc(ccc1N1CCOCC1)Nc1nccc-2n1")
"mid value"

---

biological target: EGFR^19del/T790M/C797S (Homo sapiens, UniProt P00533, T790M/C797S, form not given); construct: fused on or other part: Probably a GST tag on the cytoplasmic fragment, as in the vendor's product; assay: ELISA kinase activity inhibition, EGFR 19del/T790M/C797S; type: biochemical; details: ATP 5 μM, read-out: The average IC50 value (nM) for inhibiting the activity of different tyrosine kinases, EGFR^19del/T790M/C797S
Sequence (P00533 with tags, fused parts or gaps DEL746-750/T790M/C797S, form open): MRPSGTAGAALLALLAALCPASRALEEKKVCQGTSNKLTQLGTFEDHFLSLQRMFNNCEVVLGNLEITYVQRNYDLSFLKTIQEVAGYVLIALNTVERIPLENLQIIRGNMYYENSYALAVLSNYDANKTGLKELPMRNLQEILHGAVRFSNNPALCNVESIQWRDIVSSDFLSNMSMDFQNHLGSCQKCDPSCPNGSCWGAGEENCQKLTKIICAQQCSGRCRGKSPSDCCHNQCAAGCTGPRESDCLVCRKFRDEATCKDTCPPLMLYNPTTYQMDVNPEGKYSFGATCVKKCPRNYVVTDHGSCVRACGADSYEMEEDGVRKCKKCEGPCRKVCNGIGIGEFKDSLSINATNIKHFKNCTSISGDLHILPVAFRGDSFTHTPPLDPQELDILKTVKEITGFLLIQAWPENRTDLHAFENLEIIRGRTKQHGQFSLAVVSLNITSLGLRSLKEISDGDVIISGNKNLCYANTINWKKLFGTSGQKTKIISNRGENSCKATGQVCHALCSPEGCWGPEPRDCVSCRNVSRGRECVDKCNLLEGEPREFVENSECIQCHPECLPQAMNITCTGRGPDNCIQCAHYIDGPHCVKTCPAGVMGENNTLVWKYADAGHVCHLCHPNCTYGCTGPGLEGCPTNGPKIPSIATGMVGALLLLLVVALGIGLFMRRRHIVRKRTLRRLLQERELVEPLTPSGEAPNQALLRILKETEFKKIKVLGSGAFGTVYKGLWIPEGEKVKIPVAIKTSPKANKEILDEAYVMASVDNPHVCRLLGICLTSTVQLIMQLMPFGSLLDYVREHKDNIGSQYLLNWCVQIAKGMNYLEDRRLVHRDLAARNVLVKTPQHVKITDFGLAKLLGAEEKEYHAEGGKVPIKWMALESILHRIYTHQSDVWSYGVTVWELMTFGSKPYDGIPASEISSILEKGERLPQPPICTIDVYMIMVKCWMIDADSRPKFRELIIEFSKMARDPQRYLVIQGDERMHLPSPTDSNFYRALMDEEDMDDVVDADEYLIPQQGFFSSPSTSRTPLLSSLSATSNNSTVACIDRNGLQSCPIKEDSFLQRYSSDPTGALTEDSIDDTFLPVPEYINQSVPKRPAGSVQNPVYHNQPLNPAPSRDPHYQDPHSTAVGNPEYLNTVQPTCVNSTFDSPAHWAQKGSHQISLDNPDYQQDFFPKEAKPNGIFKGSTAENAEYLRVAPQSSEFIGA
assay metric: IC50 (nM)

>>> observed_measurement("Cc1cc(N2CCOCC2)c2cc1Nc1ncc(Cl)c(n1)-c1c[nH]c3cc(ccc13)OCCCn1cc-2cn1")
3.4
>>> observed_measurement("CCS(=O)(=O)n1cc2c3ccc(cc31)OCCCn1cc(cn1)-c1cc(c(OC)cc1CN1CCOCC1)Nc1nccc-2n1")
1
>>> observed_measurement("CCS(=O)(=O)n1cc2c3ccc(cc31)OCCCCn1cc(cn1)-c1cc(ccc1N1CCOCC1)Nc1ncc(Cl)c-2n1")
2.7
>>> observed_measurement("CCS(=O)(=O)n1cc2c3ccc(cc31)OCCCn1cc(cn1)-c1cc(c(OC)cc1N1CCN(C)CC1)Nc1nccc-2n1")
2.9
>>> observed_measurement("CCS(=O)(=O)n1cc2c3ccc(cc31)OCCCn1cc(cn1)-c1cc(c(OC)cc1N1CCC(N3CCN(C)CC3)CC1)Nc1nccc-2n1")
1.7
>>> observed_measurement("CCS(=O)(=O)n1cc2c3ccc(cc31)OCCCn1cc(cn1)-c1cc(cc(/C=C/C(C)(C)C)c1N1CCOCC1)Nc1ncc(Cl)c-2n1")
195
